- Tested on: PPARg:RXRa 30nM:10nM, anti-RXR (NR concentration 30 nM, RXRa partner concentration 10 nM)
- ASSAY INFO: PBM binding z-score (relative to random genomic background probes); higher = stronger binding; sequences stand for … in GC…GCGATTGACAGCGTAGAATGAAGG
Classification field: enter met for PBM binding z-score values not below 0.3, not met for values below it.

Below are worked cases with known answers.
TTACCAAGGTGAAGATCGTTGATCCCTCTGTAGA
not met
TCGAGTAGGCTACCAATGGGGCATTCAGCTTTCT
met
TGTCAAAGTTCACAGGTAACGTAAGTATCCACAC
met
TCTTGTAGATCAGCAGGTTAAGACAGCTGGCCAA
met
CGTCCAAGGTCAGAGAGATCAGTGAATGCCGAGT
not met
CAAACTAGGTCAAGGTCAGAGTCGGTTTGTGCCA
met
TCGAATAGGTTAGGGGCATTCAGAATGGCGTCGA
met
CTCGAAAGCTCGTGCTCAGGTGAGTATACCAAAC
not met
ATCTCCAGGTAAAGATAGTTCAGTGAATGCAAAT
not met
GCTAGCAGGCCATTTGGGTCACGCAATGACGGGC
met

Ask: Does CTCGAAATGTCGTGCTCAGGTGAGTATACCAAAC have a reported PBM binding z-score of at least 0.3?
Result: not met

Ask: And then CCTTACGGGTCAAGAGGTTATAGCACGACGAGCG , what is it?
Result: met

Ask: And then GCATATAGGTACTACAAGGTGAAAGTCCGATTGT , what is it?
Result: not met

Ask: And then CATACAGGGTCAGCTAGGACAGAGTAGGGACGGC , what is it?
Result: met

Ask: And then CGTCGAAGGTCAGAGAGGTCAGTGAATGCCGAGT , what is it?
Result: met

Ask: And then CCGACTGGGGCAAGGTTACCATCACGCACAGCCA , what is it?
Result: met

Ask: And then GATACAGGGTCAGGGCCAGAGTACGCGTATTGAT , what is it?
Result: met

Ask: And then TCTTGTAGATCAATTGAGGTTAAGAAAGTGCGCT , what is it?
Result: met

----------
- System: PPARg:RXRa 90nM:30nM, anti-RXR (NR concentration 90 nM, RXRa partner concentration 30 nM)
- ASSAY INFO: PBM binding z-score (relative to random genomic background probes); higher = stronger binding; sequences stand for … in GC…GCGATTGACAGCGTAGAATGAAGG
READOUT TYPE: PBM binding z-score
Give bare numbers.

ATCTCTAGGTAAAACTCAGTTCAGTGAAGAACGC
0.618

# batch: return PBM binding z-score for each of the 3 sequences below
1. TCGAGTAAGTTAGGGGCATTCAGAATGGCGTCGA
2. CGAGACAGGTGAAAGGTAACTCAGTCTGGTACGC
3. ACTATTAGTTGAGACGAGGGCAATCGATAGGTTG

Result:
1. 0.613
2. 6.7
3. 0.23

# batch: return PBM binding z-score for each of the 2 sequences below
1. CCGACTGGGGCAGAAAGGTTCCCATACCATCCGG
2. CCTTACGCGTCACGAGGTTATAGCACGACGAGCG

Result:
[-0.499, -0.00609]
